System: isolated trachea preparation of the guinea pig
Test: Relaxant activity on isolated tracheal muscle in vitro
Conditions: Cavia porcellus; 6 preparations; read-out: CD50 (decontracting concentration 50, concentration giving 50% of maximum relaxation)
Procedure: This activity was studied on an isolated trachea preparation of the guinea pig (chain of tracheal rings, according to CASTILLO and BEER. Journ. Pharmacol. Exp. Ther. 1947 90 104-109), kept alive in a KREBS solution. The effect of cumulative doses on the pressure of the preparation was recorded. […] These values were determined in parallel for the compound A and Salbutamol, on 6 preparations for each.

MOLECULE	EC50 (nM)
CC(C)(C)NCC(O)c1ccc(O)c(CO)c1 (centres unmarked) [Salbutamol, reference compound]	15
COc1cc(C(O)CNC(C)CCn2cnc3ccccc32)ccc1O (centres unmarked) [Compound A, sulphate, dihydrate]	71
